Experimental system: Nitric oxide synthase, inducible (Mus musculus)
Sequence (whole entry): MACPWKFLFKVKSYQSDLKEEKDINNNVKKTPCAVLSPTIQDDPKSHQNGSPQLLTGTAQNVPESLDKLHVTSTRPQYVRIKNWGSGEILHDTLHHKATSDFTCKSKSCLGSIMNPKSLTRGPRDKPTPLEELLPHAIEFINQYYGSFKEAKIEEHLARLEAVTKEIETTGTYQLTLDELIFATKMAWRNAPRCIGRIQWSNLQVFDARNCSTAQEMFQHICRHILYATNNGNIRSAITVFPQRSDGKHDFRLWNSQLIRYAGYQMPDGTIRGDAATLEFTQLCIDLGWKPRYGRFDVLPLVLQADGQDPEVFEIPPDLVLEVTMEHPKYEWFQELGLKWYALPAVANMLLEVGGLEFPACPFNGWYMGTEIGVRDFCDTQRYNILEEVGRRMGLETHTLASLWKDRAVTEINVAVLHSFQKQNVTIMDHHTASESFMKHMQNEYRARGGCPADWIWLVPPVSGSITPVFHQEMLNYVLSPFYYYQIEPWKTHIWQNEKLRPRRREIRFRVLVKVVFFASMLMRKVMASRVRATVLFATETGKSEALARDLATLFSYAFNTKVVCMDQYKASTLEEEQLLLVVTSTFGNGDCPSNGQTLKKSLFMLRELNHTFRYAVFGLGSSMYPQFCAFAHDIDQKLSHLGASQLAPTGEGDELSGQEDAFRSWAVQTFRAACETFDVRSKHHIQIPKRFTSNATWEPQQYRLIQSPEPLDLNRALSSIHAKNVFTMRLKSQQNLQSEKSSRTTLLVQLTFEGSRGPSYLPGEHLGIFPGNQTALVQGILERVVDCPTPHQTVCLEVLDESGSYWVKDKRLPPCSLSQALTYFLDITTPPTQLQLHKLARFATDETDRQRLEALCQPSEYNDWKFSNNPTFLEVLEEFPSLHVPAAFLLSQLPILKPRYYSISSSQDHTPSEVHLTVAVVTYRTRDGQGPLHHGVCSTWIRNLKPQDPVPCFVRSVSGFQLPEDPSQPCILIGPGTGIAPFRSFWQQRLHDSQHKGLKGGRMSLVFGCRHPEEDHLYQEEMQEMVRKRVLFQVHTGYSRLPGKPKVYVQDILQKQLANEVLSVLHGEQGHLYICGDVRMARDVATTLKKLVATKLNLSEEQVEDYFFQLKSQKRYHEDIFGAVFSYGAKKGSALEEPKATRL
Test summary: Nitric oxide (NO) formation during oxidation of NADPH and O2, catalyzed by NOS II detected spectrophotometrically using hemoglobin assay.
Type: functional
Endpoint label: NOHA

Structure: COc1ccc(C(=N)NO)cc1
Value measured: < 0.2%
//
Structure: N/C(=N/c1ccc(OCC(=O)O)cc1)NO
Value measured: < 0.2%
//
Structure: N=C(NO)Nc1ccc(Cl)cc1
Value measured: 13%
//
Structure: N=C(NO)Nc1cccc(CN)c1
Value measured: 1.5%
//
Structure: N/C(=N\O)NCCc1ccccc1
Value measured: 6%

====

Experimental system: Nitric oxide synthase, inducible (Mus musculus) (UniProt P29477)
Test summary: Nitric oxide (NO) formation during oxidation of NADPH and O2, catalyzed by NOS II detected spectrophotometrically using hemoglobin assay.
Type: functional
Entries and their NOHA

Compound: CC(C(=O)O)c1ccc(NC(=N)NO)cc1 (stereo not given)
Units symbol: %
Comparative sign: <
NOHA: 0.2
--
Compound: N/C(=N/c1cccc(N)c1)NO
Units symbol: %
Comparative sign: =
NOHA: 3.5
--
Compound: N/C(=N\O)c1ccccc1
Units symbol: %
Comparative sign: <
NOHA: 0.2
--
Compound: N/C(=N/c1ccc(N)cc1)NO
Units symbol: %
Comparative sign: =
NOHA: 8
--
Compound: ON=C(Nc1ccccc1)Nc1ccccc1
Units symbol: %
Comparative sign: <
NOHA: 0.2
--
Compound: COc1ccc(NC(=N)NO)cc1
Units symbol: %
Comparative sign: =
NOHA: 8
--
Compound: C/C(=N/c1ccc(Cl)cc1)NO
Units symbol: %
Comparative sign: <
NOHA: 0.2
--
Compound: N/C(=N/c1cccc(Cl)c1)NO
Units symbol: %
Comparative sign: =
NOHA: 5
--
Compound: COc1ccccc1/N=C(/N)NO
Units symbol: %
Comparative sign: =
NOHA: 5
--
Compound: O/N=C/c1ccc(Cl)cc1
Units symbol: %
Comparative sign: <
NOHA: 0.2

Value source: ChEMBL document CHEMBL1135725
